experimental system: full-length stabilised spike trimer protein of SARS-CoV-2 virus (in-house, soluble ECD with trimeris (SARS-CoV-2, UniProt P0DTC2 14-1208; P10104 458-484)
Class class 1: HTRF deltaF at least 600 deltaF. Class class 0: HTRF deltaF below 600 deltaF.

[[record]]
binder = "IMPI-032 (antibody, V domains shown) VH: QVQLQESGPGLVKPSGTLSLTCAVSGGSISSNKWWSWVRQPPGKGLEWIGEIDHSGSTMYNPSLKSRVTISVDKSKNQFSLKLNSVTAADTAVYYCTGEGYNWNYWGQGTRVTVSS VL: DVVMTQSPLSLPVTLGQTASISCRSSQSLLYTDGNTYLSWFQQRPGQSPRRLIYKVSKWESGVPDRFSGSGSGTDFTLKISRVEAEDVGIYYCMQGTHWPLTFGGGTKVEIK"
label_value = "class 0"

[[record]]
binder = "IMPI-056 (antibody, V domains shown) VH: EVQLVESGGGLIQPGGSLRLSCAASGLTVSSNYMNWVRQAPGKKLEWVSVIYSGGSTFYADSVRGRFTISRDNSKNTLFLQMNSLRAEDSAVYYCARDLGPYGVDVWGQGTTVTVSS VL: DIQLTQSPSFLSASVGDRVTITCWASQGISSYLAWYQQKPGKAPKLLIYAASTLQSGVPSRFSGSGSGTEFTLTISSLQPEDFATYYCQQLNSYPLTFGQGTRLEIK"
label_value = "class 1"

[[record]]
binder = "IMPI-055 (antibody, V domains shown) VH: QVQLVQSGAEVKKPGASVKVSCKASGYTFTSYDINWVRQATGQGLEWMGWMNPNSGNTGYAQKFQGRVTMTRDTSINTAYMELSSLRSEDTAVYFCARGGRYCSDVTCYSGEPFDYWGQGTLVTVSS VL: EIMLTQSPDFQSVTPKEKVTITCRASQSIGSSLHWYQQKPDQSPKLLIKFASQSISGVPSRFSGSGSGTDFTLTINSLEAEDAAAYYCHQSSSLPHTFGPGTKVEIK"
label_value = "class 0"

[[record]]
binder = "IMPI-029 (antibody, V domains shown) VH: EVQLVESGGGLIQPGGSLRLSCAASGVTVSSNYMNWVRQAPGKGLEWVSVIYSGGSTYYADSVKGRFTISRDNSKNTLFLQMNSLRAEDSAVYYCARDLGPYGVDVWGQGTTVTVSS VL: DIQLTQSPSFLSASVGDRVTITCWASQGISSYLAWYQQKPGKAPKLLIYAASTLQSGVPSRFSGSGSGTEFTLTISSLQPEDFATYYCQELNSYPLTFGQGTRLEIK"
label_value = "class 1"

[[record]]
binder = "IMPI-038 (antibody, V domains shown) VH: QVQLVESGGGVVQPGRSLRLSCAASGFTFSSYGMHWVRQAPGKGLEWVAVISYDGSDKYYADSVKGRFTISRDNSKNTLYLQMNSLRAEDTAVYYCAKTVAGYYYYYYGMDVWGQGTTVTVSS VL: DIQMTQSPSSVSASVGDRVTVTCRASQDISSWLAWFQQKPGKAPKFLIYDASNLENGVPSRFSGSGSGTDFTLTISSLQPEDFATYYCQQAKSFPWTFGQGTKVEIN"
label_value = "class 1"

[[record]]
binder = "IMPI-068 (antibody, V domains shown) VH: QVQLVESGGDVVQPGRSLRLSCAASGFTFSRYGMHWVRQAPGKGLEWVAVISYDGSDKYYADSVKGRFTISRDNSKNTLYLQMNSLRAEDTAVYYCAKQLPLYYYYYGMDVWGQGTTVTVSS VL: AIQLTQSPSSLSASVGDRVTITCRASQGISSALAWYQQKPGKAPNLLIYDASSLESGVPSRFSGSGSGTDFTLTISSLQPEDFATYYCQQFNIYPHTFGPGTKVDIK"
label_value = "class 1"

[[record]]
binder = "IMPI-063 (antibody, V domains shown) VH: EVQLVESGGGVVRPGGSLRLSCAASGFTFDDYGMSWVRQAPGKGLEWVSGIYWNGGSTGYADSVKGRFTISRDNAKNSLYLQMNSLRAEDMALYYCARGVGATDYWGQGTLVTVSS VL: EIVLTQSPGTLSLSSGERATLACRASESVRGSFLAWYQQKPGQAPRLLIYGASRRATGIPDRFSGSGSGTDFTLTISRLEPEDFAVYYCQQYGNSPMCSFGQGTKLEIK"
label_value = "class 1"

[[record]]
binder = "IMPI-059 (antibody, V domains shown) VH: EVQLVESGGGLIQPGGSLRLSCAASGFTVSSIYMSWVRQAPGKGLEWVSIIYSRGSTDYADSVKGRFTISRDISKNTLYLQMNSLRAEDTAVYYCARDGTMVRGVHAFDIWGQGTMVTVSS VL: DIQMTQSPPSLSASIGDRVTITCQASQDISNYLNWYQQKPGKAPKLLIYDASNLETGVPSRFSGSGSGTDFTLTISNLQPEDIVTYYCQQYDNLPSSFGQGTKLEIK"
label_value = "class 0"

[[record]]
binder = "IMPI-022 (antibody, V domains shown) VH: EVQLVESGGGLVQPGRSLRLSCAASGFTFDDYAMHWVRQAPGKGLEWVSGITWNSGSIGYADSVKGRFTISRDNAKNSLYLHMNSLRVEDTALYYCAKDLQGDYYYYGVDVWGQGTTVTVSS VL: AIQLTQSPSSLSASVGDRVTITCRASQGISSALAWYQQKPGKAPKLLLYDASSLVSGVPSRFSGSRSGTDFTLTISSLQPEDFATYYCQQFISYPLTFGGGTRVEIK"
label_value = "class 0"

[[record]]
binder = "IMPI-052 (antibody, V domains shown) VH: EVQLVESGGGLIQPGGSLRLSCAASGVTVSSNYMNWVRQAPGKGLEGVSVIYSGGTTYYADSVKGRFTISRDNSKNTLYLQMNSLRAEDTAVYYCARDTVVYGMDVWGQGTTVTVSS VL: DIQLTQSPSFLSASVGDRVTITCWASQGISSYLAWYQQKPGKAPKLLIYTASTLQSGVPSRFSGSGSGTEFTLTISSLQPEDFATYYCQQLNSYPLTFGGGTKVEIK"
label_value = "class 1"

[[record]]
binder = "IMPI-024 (antibody, V domains shown) VH: EVQLVQSGAEVKKPGESLKISCKGSGYSFTSYWIGWVRQMPGKGLEWMGIIYPGDSDTRYSPSFQGQVTISADKSISTAYLQWSSLKASDTAMYYCVRSYNWNYFDYWGQGTLVTVSS VL: AIQLTQSPSSLSASVGDRVTITCRASQGISSGLAWYQQKAGKAPKLLIYDVSSLESGVPSRFSGSGSGTDFTLTISSLQPEDFATYYCQQFLSYPWTFGQGTKVEIK"
label_value = "class 1"

